The reported numbers originate from patent US20250109140A1.

Exercise: state measured IC50 for each of the molecules provided.
# System: MYB mRNA
# experimental.protocol: Splicing RT-qPCR assay, MYB canonical (CJ) and alternative (AJ) junction mRNA
# Assay type: cell-based
# run.conditions: Homo sapiens; Table 7; IC50 = 50% response in CJ mRNA decrease; RT-qPCR, A673 or K562 cells, 24 hours treatment; read-out: MYB CJ

mol.smiles | IC50
Cc1nc2c(F)cc(-n3cc4cc(C5CCNCC5)sc4n3)cc2o1 | 1000 to 10000 nM
Cn1cc2cc(-c3nc4cn(C5CCNCC5)nc4s3)cc(F)c2n1 | 100 to 1000 nM

State the recorded IC50 for every item in the following list.
1. Cc1c(O)c(-c2nc3cn(C4CCNCC4)nc3s2)cc2cn(C)nc12
2. Cn1cc2cc(-c3cc4cn(C5CCNCC5)nc4s3)c(O)c(F)c2n1
3. CN1CCC2(CC1)CCN2c1cc2sc(-c3cc(F)c4nn(C)cc4c3)nc2s1

["< 100 nM", "1000 to 10000 nM", "1000 to 10000 nM"]

State the recorded IC50 for every item in the following list.
1. Cn1cc2cc(-n3cc4cc(C5CCNCC5)sc4n3)c(O)cc2n1
2. Cn1cc2cc(-c3nc4sc(N5CCNCC5)cc4s3)cc(F)c2n1
3. Cn1cc2cc(-c3cc4nn(C5CCNCC5)cc4s3)cc(F)c2n1
4. c1n[nH]cc1-n1cc2sc(C3CCNCC3)cc2n1

1: 1000 to 10000 nM; 2: 100 to 1000 nM; 3: 100 to 1000 nM; 4: > 10000 nM

State the recorded IC50 for every item in the following list.
1. Cc1cc(-c2nc3cn(C4CCNCC4)nc3s2)cc2cn(C)nc12
2. Cn1cc2c(F)cc(-n3cc4cc(C5CCNCC5)sc4n3)cc2n1

1. 100 to 1000 nM
2. > 10000 nM

* * *

Exercise: state measured pIC50 for each of the molecules provided.
# Test system: K562 (human chronic myelogenous leukemia) cells
# experimental.protocol: Cell viability, Cell Titer Glo 2.0 assay, K562 cells
# Type: cell-based
# run.conditions: 72 hours
# Experimental: Compounds described herein were screened for toxicity in K562 (human chronic myelogenous leukemia) and SH-SY5Y (human neuroblastoma) cells using a Cell Titer Glo 2.0 assay. Cells were plated at 500 cells/well (K562 cells) in 45 μL of IMDM supplemented with 10% FBS in a 384-well opaque plate. Wells containing only medium were used as a blank control. Test compounds (e.g., compounds of Formula (I), (III), (IV), (V), or (VI)) were first serially diluted in DMSO then diluted 1:100 with IMDM+10% FBS. […]
pIC50: −log10 of the molar value.

Record excerpt, results attached:
mol.smiles | pIC50
Cc1cn2cc(-c3cc4cn(C5CCNCC5)nc4s3)cc(F)c2n1 | 6.00 to 7.00
Cc1cn2cc(-n3cc4cc(C5CCNCC5)sc4n3)nc2c(C)n1 | 5.00 to 6.00
CN1CCC(n2cc3cc(-c4cc(F)c5nn(C)cc5c4)sc3n2)CC1 | 6.00 to 7.00
Cc1c(O)c(-c2cc3cn(C4CCNCC4)nc3s2)cc2cn(C)nc12 | 5.00 to 6.00
Cn1cc2cc(-c3cc4cn([C@@H]5CCNC[C@H]5O)nc4s3)cc(F)c2n1 | 5.00 to 6.00
Cn1cc2cc(-c3cc4cn(C5CCNCC5)nc4s3)ccc2n1 | 5.00 to 6.00

State the recorded pIC50 for every item in the following list.
1. Cn1cc2cc(-c3cc4cn([C@H]5CCNC[C@H]5F)nc4s3)cc(F)c2n1
2. Cc1cn2cc(-n3cc4cc(C5CCNCC5)sc4n3)cc(C)c2n1
3. Cc1cn2nc(-n3cc4cc(C5CCNCC5)sc4n3)cc2c(C)n1
4. Cn1cc2cc(-c3cc4cn([C@H]5CCNC[C@@H]5F)nc4s3)cc(F)c2n1
5. Cc1cn2nc(-n3cc4cc(C5CCNCC5)sc4n3)cc(C)c2n1

1. 6.00 to 7.00
2. 6.00 to 7.00
3. 5.00 to 6.00
4. 5.00 to 6.00
5. 5.00 to 6.00
